The measured values listed here are drawn from the supplement of paper PMC10567573.

B1: ZNF8 (parent)
chain: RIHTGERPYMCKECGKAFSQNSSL

Variants of: B1
Assay details: protein stability index of a GFP-peptide fusion (GPS, HEK-293T) (PSI 1-6); higher = more stable;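 note: lentivirally expressed fusions sorted by FACS into six bins by GFP to DsRed ratio, PSI derived from sequencing read proportions per bin multiplied by bin number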
Measurement parameters: c terminus: a fixed tail appended
Measurement name: protein stability index
Kindly provide the number alone.

Entry `E6L` — recorded protein stability index = 2

Entry `H3W` — recorded protein stability index = 2.05

Entry `S23M` — recorded protein stability index = 1.98

Entry `K12R` — recorded protein stability index = 1.99
